test system: Mus musculus; assay: Effect on liver weight in ovariectomized mouse at 0.110 mmol/kg, ip once daily for 4 weeks; format: functional
Where a SMILES comes first, the peptide text is derived from it. The star is where a group is joined. Succinyl(O17-estradiol) = C[C@]12CC[C@@H]3c4ccc(O)cc4CC[C@H]3[C@@H]1CC[C@@H]2OC(=O)CCC(=O)*; X2 = C[C@]12CC[C@@H]3c4ccc(OCC(=O)*)cc4CC[C@H]3[C@@H]1CCC2=O
What Activity was measured for each of the following?
Number only, in g; omit the unit.

# input For Mus musculus, provide Activity of CC(C)[C@H](NC(=O)[C@H](CC(=O)O)NC(=O)CNC(=O)[C@H](CCCNC(=N)N)NC(=O)CCC(=O)O[C@H]1CC[C@H]2[C@@H]3CCc4cc(O)ccc4[C@H]3CC[C@]12C)C(=O)O ({Succinyl(O17-estradiol)}-RGDV-OH) please.
# output 1.353

# input // next record C[C@]12CC[C@@H]3c4ccc(OCC(=O)N[C@@H](CCCNC(=N)N)C(=O)NCC(=O)N[C@@H](CC(=O)O)C(=O)N[C@@H](Cc5ccccc5)C(=O)O)cc4CC[C@H]3[C@@H]1CCC2=O (X2-RGDF-OH)
# output 1.458

# input Next: CC(C)[C@H](NC(=O)[C@H](CC(=O)O)NC(=O)CNC(=O)[C@H](CCCNC(=N)N)NC(=O)COc1ccc2c(c1)CC[C@@H]1[C@@H]2CC[C@]2(C)C(=O)CC[C@@H]12)C(=O)O (X2-RGDV-OH)
# output 1.389

# input Now give it for C[C@]12CC[C@@H]3c4ccc(OCC(=O)N[C@@H](CCCNC(=N)N)C(=O)NCC(=O)N[C@@H](CC(=O)O)C(=O)N[C@@H](CO)C(=O)O)cc4CC[C@H]3[C@@H]1CCC2=O (X2-RGDS-OH) too.
# output 1.347

# input Repeat with N=C(N)NCCC[C@H](N)C(=O)NCC(=O)N[C@@H](CC(=O)O)C(=O)N[C@@H](Cc1ccccc1)C(=O)O (H-RGDF-OH)
# output 1.413

Cited source for all entries: ChEMBL document CHEMBL1145431
